# assayText: NCI Yeast Anticancer Drug Screen. Data for the cln2 rad14 strain (AID 165)
# cond: S. cerevisiae cln2 rad14 strain, at 50.0 µM (retest, dose inferred, filed as 5.0)
Compounds without any hit were thinned out: in the full panel of roughly 79,000, 15% have a hit. Active and inactive are the calls of the source. Cut-off read from the data, not from the text of the source: active = growth inhibition above about 70%; inactive = the rest.
// allowed return values: YES = active, NO = inactive

Data request: Which result was noted for this compound in the test: CC(CSc1n[nH]c(=S)s1)c1ccccc1 (configuration not stated)
Data returned: YES

Data request: Please let me know the test result on file for C=C(C)C1CC2(C)C(C)CC(O)CC2C(OC(=O)C=C(C)C)C1O (configuration not stated) .
Data returned: NO

Data request: For `CCOC(=O)/C(=C\c1ccc2ccccc2c1)P(=O)(OCC)OCC` , what call appears in the results of this test?
Data returned: NO

Data request: Tell me the recorded outcome of this test for `CCCC(=O)c1ccc([N+](=O)[O-])o1` .
Data returned: YES

Data request: Query: recorded result category for O=C(c1ccccc1)C(Br)[N+](=O)[O-] (configuration not stated) in this test
Data returned: YES

Data request: In this assay, the call recorded for `Cc1nn(CCO)c(C)c1N=[N+]([O-])c1c(C)nn(CCO)c1C` was what?
Data returned: YES

Data request: What did the test return for `CCOc1ccc(Nc2nc3c(s2)C(=O)c2ccccc2C3=O)cc1` ?
Data returned: YES

Data request: Which outcome was assigned to `O=[N+]([O-])/C(=C/c1ccccc1)c1ccccc1` in this test?
Data returned: YES

Data request: Each compound tested received a call. Report the one for `O/N=C1\c2ccccc2-c2ccc(F)cc21` .
Data returned: YES

Data request: Identify the outcome logged in this assay for the compound shown: `COc1cc2c(c(OC)c1OC)-c1ccc(NCc3ccccc3)c(=O)cc1[C@@H](NC(C)=O)CC2`
Data returned: YES

Data request: Tell me the recorded outcome of this test for `COc1cc(/C=C/c2ccnc3ccccc23)cc(OC)c1OC` .
Data returned: NO

Data request: What did this assay record as the result for `C/C(=N\NC(=S)N1CCC1)c1ccccn1` ?
Data returned: YES

----------
# assayText: NCI Yeast Anticancer Drug Screen. Data for the sgs1 mgt1 strain (AID 161)
# cond: S. cerevisiae sgs1 mgt1 strain, at 50.0 µM (retest, dose inferred, filed as 5.0), hits give high values
Compounds without any hit were thinned out: in the full panel of roughly 79,000, 15% have a hit.
Would you please tag the item yes when its growth inhibition is 80% or above, and no when it is below?

Data request: Is growth inhibition for CCCCC(CC)CNC(=O)CI (stereo not drawn) at or above 80%?
Data returned: no

Data request: Is it the case that `O=C1C=CC(O)=CC1=P(c1ccccc1)(c1ccccc1)c1ccccc1` has growth inhibition reaching or exceeding 80%?
Data returned: no

Data request: In plain terms: is recorded growth inhibition at least 80% for CC(C)=CCCC(C)C1=C(O)C(=O)C(C)=CC1=O (stereo not drawn) ?
Data returned: yes

Data request: Could you tell me if the measured growth inhibition of `O=C1C=CC(=O)C2=C1CC=CC2` reaches 80% or more?
Data returned: yes

Data request: Given the entry CCC[CH2][Sn]([CH2]CCC)([CH2]CCC)[O]C(=O)C(OC(C)=O)c1ccccc1 (stereo not drawn) , answer whether its growth inhibition meets or surpasses 80%.
Data returned: yes

Data request: Decide: growth inhibition of `COc1cccc(NC(=O)c2c(SC)n[nH]c2N)c1` >= 80%?
Data returned: yes

Data request: Answer whether growth inhibition of CCC(C)(O)Cc1ccc(Cl)cc1 (stereo not drawn) is greater than or equal to 80%.
Data returned: no

Data request: Reported growth inhibition at or above 80%? `Cc1oc2c(C)c3oc(=O)cc(C)c3cc2c1CCl`
Data returned: yes

Data request: Please check the record `Cc1ccccc1N=NC(C#N)C#N` and state if its growth inhibition is at or above 80%.
Data returned: yes

Data request: Is growth inhibition at least 80%? Consider `[O-][n+]1cccc2cccc(O)c21`
Data returned: no

Data request: Does growth inhibition meet or surpass 80% for `O=C1CCC2(C=C(Br)C(=O)C(Br)=C2)O1` ?
Data returned: yes

Data request: Is growth inhibition for `Cc1cc(N/N=C/c2ccccn2)nc2ccccc12` at or above 80%?
Data returned: yes

Data request: Does the reported growth inhibition for `CN(C)c1ccc(/C=C/c2sc3ccc4ccccc4c3[n+]2C)cc1` fall at or above the 80% mark?
Data returned: yes

Data request: Is growth inhibition at least 80%? Consider `CC1(O)CCCCCC1`
Data returned: no

Data request: Dear colleague, could you confirm whether CC1(C=O)CCC23COC4(CCC5C6(C)CCC(OC7OCC(OC8OC(CO)C(O)C(OC9OC(CO)C(O)C(O)C9O)C8OC8OCC(O)C(O)C8O)C(O)C7OC7OC(CO)C(O)C(O)C7O)C(C)(C)C6CCC5(C)C4(C)CC2O)C3C1 (stereo not drawn) has growth inhibition at or above 80%?
Data returned: yes

Data request: Hi, just wondering whether `CCSC(=O)c1ccc([N+](=O)[O-])o1` shows growth inhibition of 80% or higher.
Data returned: yes

Data request: Decide: is the reported value of growth inhibition for `Cc1cc(C(=O)c2ccc(Cl)cc2)ccc1O` equal to or greater than 80%?
Data returned: no

Data request: Reported growth inhibition reaches at least 80% for `O=[N+]([O-])C=C(c1ccccc1)c1ccccc1` ?
Data returned: yes

Data request: Identify whether the reported growth inhibition of the following compound is 80% or greater: `Cn1c(-c2ccccc2)c(/C=C/C2=[N+](C)c3ccccc3C2(C)C)c2ccccc21`
Data returned: no

Data request: Quick check, growth inhibition >= 80%? `Nc1ccc(C(=O)/C=C/c2ccccc2)cc1`
Data returned: no

Data request: For this compound, is measured growth inhibition 80% or higher? `CSc1nc(C)c(C(=O)CCN2CCN(c3ccccn3)CC2)s1`
Data returned: yes

Data request: Test whether the compound `Cc1cc(C(N)=O)cc(C)c1C(=O)OCCCl` records growth inhibition of 80% or higher.
Data returned: no

Data request: Does Cc1ccccc1N=C(N)Nc1ccccc1C (tested in a mixture with another compound) have a reported growth inhibition of at least 80%?
Data returned: no

Data request: Please indicate if the recorded growth inhibition for `Cc1nn(CCO)c(C)c1N=[N+]([O-])c1c(C)nn(CCO)c1C` meets or exceeds 80%.
Data returned: yes

Data request: Is it the case that `COc1ccc(Nc2nc3ccc(C(F)(F)F)cc3nc2C(=O)O)cc1` has growth inhibition reaching or exceeding 80%?
Data returned: no

Data request: Please check the record `O=C(CCl)N1c2ccccc2Sc2c1ccc1ccccc21` and state if its growth inhibition is at or above 80%.
Data returned: yes

Data request: Does growth inhibition meet or surpass 80% for `O=C(O)c1cccc2cccc(-c3c4ccc(=O)c(O)c-4oc4c(O)c(O)ccc34)c12` ?
Data returned: yes

Data request: Is reported growth inhibition greater than or equal to 80% here: `O=C1C(=O)c2cccnc2-c2ncccc21`
Data returned: yes

Data request: hey, is growth inhibition for this one >= 80%? `CCc1cnc2ccccc2c1/C=C/c1ccc(N(C)C)cc1`
Data returned: yes

Data request: Quick check: does `N=C1C(=N)c2ccccc2-c2ccccc21` have growth inhibition greater than or equal to 80%?
Data returned: no

Data request: Is growth inhibition at least 80%? Consider CC1=CC(=O)C=CC1(C)C(Cl)(Cl)Cl (stereo not drawn)
Data returned: no

Data request: Is the recorded value of growth inhibition equal to or greater than 80% for this compound? OC(c1cc2ccc(C(F)(F)F)cc2c2cc(C(F)(F)F)ccc12)C1CCCCN1 (stereo not drawn)
Data returned: yes

Data request: Please indicate if the recorded growth inhibition for CCCOC1N(c2ccc(C)cc2)NC(=O)C1(C)C (stereo not drawn) meets or exceeds 80%.
Data returned: yes

Data request: Test whether the compound `COc1cccc(NC(=O)C(C#N)=C(SC)SC)c1` records growth inhibition of 80% or higher.
Data returned: yes

Data request: // inclusive: growth inhibition at least 80%? input: `C[C@@]1(CO)[C@H](O)CC[C@@]2(C)[C@H]1CC[C@H]1C[C@@H]3C[C@@]12CC[C@@]3(O)COC(=O)CN`
Data returned: no

Data request: Assess whether reported growth inhibition for `Oc1ccc2ccccc2c1N=Nc1ccccn1` sits at 80% or higher.
Data returned: yes

Data request: Record `CCCCCCN(CCCCCC)CCCNc1nccc2ccccc12` ; criterion: growth inhibition no lower than 80%. Met?
Data returned: yes

Data request: Is it the case that COc1ccc(C(Cn2ccnc2)Sc2ccc(Cl)c(Cl)c2)cc1 (stereo not drawn) has growth inhibition reaching or exceeding 80%?
Data returned: yes

Data request: Would you say `C/C(=N\NC(=S)N1CC2CCC(CC2)C1)c1ccccn1` shows growth inhibition at minimum 80%?
Data returned: no

Data request: Would you say `O=C(Cc1nc2cc(Cl)c(Cl)cc2nc1CC(=O)c1cccnc1)c1cccnc1` shows growth inhibition at minimum 80%?
Data returned: yes

Data request: // inclusive: growth inhibition at least 80%? input: `C[n+]1ccccc1C[n+]1ccccc1`
Data returned: no

Data request: # bool: growth inhibition of `CC(C)(C)C(=O)CC(c1ccccc1)c1ccccc1` >= 80%
Data returned: no

Data request: hey, is growth inhibition for this one >= 80%? `O=C(NOC(=O)c1ccccc1)c1ccccc1`
Data returned: yes

Data request: Tell me whether growth inhibition is at least 80% here: `S=c1[nH]c(=S)c2[nH]c(=S)[nH]c2[nH]1`
Data returned: no

Data request: Does the compound CC(/C=N/NC(N)=S)Cc1ccc(C(C)C)cc1 (stereo not drawn) have recorded growth inhibition that is 80% or more?
Data returned: yes

Data request: Does the compound N#CC(c1ccccc1)C(c1ccccc1)c1ccccc1 (stereo not drawn) have recorded growth inhibition that is 80% or more?
Data returned: yes

Data request: Kindly determine if growth inhibition recorded for `CC(C)(C)c1ccc(O)c(-c2ccccc2)c1` is above or exactly 80%.
Data returned: yes
